Protocol summary: activity coefficient (dimensionless); of the first substance listed, at infinite dilution; xn = mol fraction of the nth substance listed
Assay conditions: 338.15 K; Liquid; Chromatography; x1 = 0
Reported endpoint: activity coefficient

Examples with answers:
CCCCCCC [heptane] + CCCC[N+]1(C)CCCC1.O=S(=O)([O-])C(F)(F)F    50.4
CCO [ethanol] + CCCC[N+]1(C)CCCC1.O=S(=O)([O-])C(F)(F)F    0.862
C=CCCCCCC [oct-1-ene] + CCCC[N+]1(C)CCCC1.O=S(=O)([O-])C(F)(F)F    32.7
CCCCCC [hexane] + CCCC[N+]1(C)CCCC1.O=S(=O)([O-])C(F)(F)F    38.8
CCCCC [pentane] + CCCC[N+]1(C)CCCC1.O=S(=O)([O-])C(F)(F)F    32.2
c1ccccc1 [benzene] + CCCC[N+]1(C)CCCC1.O=S(=O)([O-])C(F)(F)F    1.5

P = CCCO [propan-1-ol] + CCCC[N+]1(C)CCCC1.O=S(=O)([O-])C(F)(F)F
Q = C1CCCCCC1 [cycloheptane] + CCCC[N+]1(C)CCCC1.O=S(=O)([O-])C(F)(F)F
Would you let me know which has the greater activity coefficient value, P or Q ? Respond with the label that goes with your answer.
Q
(Q: 21.6, P: 1.08)
